Where a name gives a salt, the structure may show the parent alone.
Measurement kind: melting point (°C)
Use °C as the unit, but write only the number.

Entry under review: CN(C)CC(C)(C)CNS(=O)(=O)c1cc([N+](=O)[O-])ccc1Oc1cc(Cl)cc(Cl)c1 . Reported melting point?
134

Give its melting point value. Item: Cc1cc(C)cc(Oc2ccc(-c3nnn[nH]3)cc2S(=O)(=O)N2CCNCC2)c1 (as salt: hydrochloride)
213

What measured melting point goes with Cc1ccc(C(C)C)c(Oc2ccc([N+](=O)[O-])cc2S(=O)(=O)N2CCNCC2)c1.Cl ?
193

###

# Target system: Human CCR3 (Homo sapiens)
# Construct: The cloned CCR3 cDNA was constructed with pcDNA3 vector and transfected into a IC562 cell line; expressed in transfected cells
# Sequence (P51677 whole entry): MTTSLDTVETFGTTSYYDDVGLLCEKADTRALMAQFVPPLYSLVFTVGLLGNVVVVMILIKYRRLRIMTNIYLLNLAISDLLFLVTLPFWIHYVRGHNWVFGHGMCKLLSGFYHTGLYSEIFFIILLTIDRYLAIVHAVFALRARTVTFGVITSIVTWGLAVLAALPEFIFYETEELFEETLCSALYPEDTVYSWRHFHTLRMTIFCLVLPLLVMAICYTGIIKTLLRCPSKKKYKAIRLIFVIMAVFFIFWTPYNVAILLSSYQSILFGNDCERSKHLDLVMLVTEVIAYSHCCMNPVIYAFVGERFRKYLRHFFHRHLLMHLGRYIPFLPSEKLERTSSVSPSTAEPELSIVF
# Assay text: Receptor binding assay (RBA), [125I]-eotaxin
# Experimental conditions: human CCR3-transformed K562 cells, 0.1 nM [125I]-eotaxin; compounds of about 40 to 90% purity; read-out: Activity grade RBA (IC50 class)
pIC50: −log10 of the molar value. Counter-ions that a name gives are not always drawn.
Measurement kind: pIC50

Name the reported pIC50 value associated with the compound Cl.O=[N+]([O-])c1ccc(Oc2cccc(Br)c2)c(S(=O)(=O)N2CCNCC2)c1
> 6.00

What value of measured pIC50 is listed for Cc1cc(C)cc(Oc2ccc(S(=O)(=O)N(C)C)cc2S(=O)(=O)N2CCNCC2)c1.Cl ?
5.00 to 6.00

Which pIC50 is listed for O=[N+]([O-])c1ccc(Oc2cc(Br)cc(Br)c2)c(S(=O)(=O)N2CCNCC2)c1 ?
> 6.00

Please report the recorded pIC50 for Cc1cc(C)cc(Oc2ccc([N+](=O)[O-])cc2S(=O)(=O)N2CC[C@@H](N(C)C)C2)c1 .
> 6.00

Item Cc1cc(C)cc(Oc2ccc([N+](=O)[O-])cc2S(=O)(=O)N2CCC(N3CCCC3)CC2)c1 has what recorded pIC50?
> 6.00

Can you look up the measured pIC50 of CC(C)(C)c1ccc(Oc2ccc([N+](=O)[O-])cc2S(=O)(=O)N2CCNCC2)cc1 for me?
< 5.00

Need pIC50, item Cc1cc(C)cc(Oc2ccc([N+](=O)[O-])cc2S(=O)(=O)N2CCNCC2)c1 [Example 1-2, hydrochloride]
> 6.00

Look up pIC50: Cc1ccccc1Oc1ccc([N+](=O)[O-])cc1S(=O)(=O)N1CCNCC1.Cl
5.00 to 6.00

Could you tell me which pIC50 is on file for Cc1cc(C)cc(Oc2ccccc2S(=O)(=O)N2CCNCC2)c1.Cl ?
< 5.00

Which measured pIC50 value corresponds to Cc1cccc(Nc2ccc([N+](=O)[O-])cc2S(=O)(=O)N2CCNCC2)c1 ?
5.00 to 6.00

Recorded pIC50 of Cc1cc(Oc2cc(Cl)cc(Cl)c2)c(S(=O)(=O)N2CCNCC2)cc1[N+](=O)[O-].Cl , please.
> 6.00

Query: pIC50; subject: O=[N+]([O-])c1ccc(Oc2ccc(F)cc2)c(S(=O)(=O)N2CCNCC2)c1
< 5.00

Reported pIC50 for Cc1ccc(Nc2ccc([N+](=O)[O-])cc2S(=O)(=O)N2CCNCC2)cc1 : what is it?
< 5.00

Give the measured pIC50 of Cc1cc(C)cc(Oc2ccc([N+](=O)[O-])cc2S(=O)(=O)N2CC(C)NCC2C)c1.Cl (stereo not shown) .
> 6.00

# lookup: pIC50 of COc1cc(Oc2cc(C)cc(C)c2)c(S(=O)(=O)N2CCNCC2)cc1[N+](=O)[O-].Cl
5.00 to 6.00

Could you share which pIC50 value was measured for CC1CCCCN1CCCNS(=O)(=O)c1cc([N+](=O)[O-])ccc1Sc1cc(Cl)cc(Cl)c1 (stereo not shown) ?
> 6.00

Request the reported pIC50 associated with Cc1cc(C)cc(Oc2ccc(O)cc2S(=O)(=O)N2CCNCC2)c1 [Example 6-1, hydrochloride]
< 5.00

# input compound: Cc1cccc(Oc2ccc([N+](=O)[O-])cc2S(=O)(=O)N2CCNCC2)c1C.Cl ; wanted: its pIC50
> 6.00

# input compound: Cl.O=[N+]([O-])c1ccc(Oc2cccc3ccccc23)c(S(=O)(=O)N2CCNCC2)c1 ; wanted: its pIC50
5.00 to 6.00

Which pIC50 reading was recorded for the compound CCCCc1ccccc1Oc1ccc([N+](=O)[O-])cc1S(=O)(=O)N1CCNCC1.Cl ?
> 6.00

What value of measured pIC50 is listed for Cc1cc(C)cc(Oc2ccc([N+](=O)[O-])cc2S(=O)(=O)N2CCN(C3CCCC3)CC2)c1 ?
> 6.00

// pIC50 lookup, key: CN1CCC(N(C)S(=O)(=O)c2cc([N+](=O)[O-])ccc2Oc2cc(Cl)cc(Cl)c2)C1 (stereo not shown)
> 6.00

Given the entry Cc1cc(C)cc(Oc2ccc(N)cc2S(=O)(=O)N2CCNCC2)c1.O=C(O)C(F)(F)F , report its measured pIC50.
< 5.00

Which pIC50 reading was recorded for the compound CN(C)c1cccc(Oc2ccc([N+](=O)[O-])cc2S(=O)(=O)N2CCNCC2)c1.Cl ?
< 5.00

Entry Cl.O=[N+]([O-])c1ccc(Oc2c(F)c(F)cc(F)c2F)c(S(=O)(=O)N2CCNCC2)c1 : reported pIC50 = ?
> 6.00

Quick check: pIC50 of Cc1ccc(C(C)C)c(Oc2ccc([N+](=O)[O-])cc2S(=O)(=O)N2CCNCC2)c1.Cl ?
5.00 to 6.00

Fill blank: measured pIC50 of the compound Cl.N#Cc1cccc(Oc2ccc([N+](=O)[O-])cc2S(=O)(=O)N2CCNCC2)c1 is ____.
5.00 to 6.00

What measured pIC50 goes with Cl.O=[N+]([O-])c1ccc(Oc2cc(F)cc(F)c2)c(S(=O)(=O)N2CCNCC2)c1 ?
> 6.00

Could you share which pIC50 value was measured for Cl.O=S(=O)(c1cc(Br)ccc1Oc1cc(Cl)cc(Cl)c1)N1CCNCC1 ?
> 6.00

Query: pIC50; subject: O=[N+]([O-])c1ccc(Oc2ccc(Cl)cc2)c(S(=O)(=O)N2CCNCC2)c1
< 5.00

Entry CN(C)CCN(C)S(=O)(=O)c1cc([N+](=O)[O-])ccc1Oc1cc(Cl)cc(Cl)c1 has what pIC50?
> 6.00
